Test system: SK-MEL-2 melanoma
Assay: NCI-60 one-dose screen, 48 h
Details: 10 µM unless noted
This is part of a sample that, as a whole, favours compounds with a hit. Of some 83,000 tested, about 20% had one in any assay. The source made the active and inactive calls. The calls were made as follows: active = growth percent below 10; inactive = the rest.
API: response.call in Y for active, N for inactive

How did this test come out for `CCN(CC)CCCCCCNc1cc(OC)c(Cl)c2cccnc12` ?
N

How did this test come out for `N=C(N)c1ccc(-c2ccc(-c3cncc4ccccc34)s2)s1` ?
N

How did this test come out for `O=C(/C=C/c1c(Cl)nc2sccn12)c1ccc(F)c(F)c1` ?
N

How did this test come out for `NS(=O)(=O)c1ccc(-n2nc(C(=O)N/N=C\c3ccc(F)cc3)cc2-c2ccc(Cl)cc2)cc1` ?
N

How did this test come out for `O=C(COc1ccc(/C=C2\Oc3ccccc3C2=O)cc1)Nc1nc2c(s1)CCCC2` ?
N

Next:
How did this test come out for `CNC(=O)c1cc(Oc2cccc3nc(Nc4ccc(F)c(Cl)c4)ccc23)ccn1` ?
N

How did this test come out for COc1cc(OC)cc(C2CC(=O)Nc3c2c(C)nn3-c2nc3ccccc3[nH]2)c1 (stereo unspecified) ?
N

How did this test come out for `CC/C=C/C/C=C/C/C=C/C/C=C/C/C=C/C/C=C/CCC(=O)Nc1ccn([C@@H]2O[C@H](CO)[C@@H](O)C2(F)F)c(=O)n1` ?
N

How did this test come out for `O=C1/C(=C/c2ccc(F)cc2)C=C(c2ccccc2)N1CCc1ccccc1` ?
N

How did this test come out for CCN(CC)CCCC(C)Nc1c2ccc(Cl)cc2nc2ccc(O)cc12 (stereo unspecified) ?
N

How did this test come out for COc1cc(C2CC(c3ccc(Nc4ccnc5cc(Cl)ccc45)cc3)=NN2C=O)cc(OC)c1OC (stereo unspecified) ?
N

How did this test come out for `CSc1n(Cc2ccc3ccccc3c2)c(C)c[n+]1Cc1ccc2ccccc2c1` ?
Y

How did this test come out for O=C1CCC2=C3C4CCCCC4C(=O)C4CCCC(OC2C1)C34 (stereo unspecified) ?
Y

How did this test come out for `COc1ccc2c(c1)O/C(=C\c1cccc(OCC(=O)Nc3nc(C)c(C)s3)c1)C2=O` ?
N

How did this test come out for `S=C(c1ccc2c(c1)OCO2)N1CCN(c2ccccc2Cl)CC1` ?
N

How did this test come out for `Cc1ccc(NCCN(C)C)c2c(=O)c3ccccc3sc12` ?
N

How did this test come out for `N[C@@H](CCCCNCC(=O)O)C(=O)O` ?
N

How did this test come out for `Cc1nc2ccccc2c(/C=C/c2ccc(Cl)cc2)c1C(=O)/C=C/c1ccc(F)cc1` ?
Y

How did this test come out for CC1(C)CC(=O)C2=C(C1)N(c1ccc(OC(F)(F)F)cc1)C(N)=C(C#N)C2c1ccc(Cl)cc1 (stereo unspecified) ?
N

* * *

Tested on: HCT-15 colon
Test: NCI-60 one-dose screen, 48 h (100 = growth as untreated, 0 = no growth, -100 = all killed)
Conditions: 10 µM unless noted
This is part of a sample that, as a whole, favours compounds with a hit. Of some 83,000 tested, about 20% had one in any assay.
Could you mark each record 1 if its growth falls strictly under 40%, and 0 if it equals or exceeds it?

These solved cases illustrate the format of a correct answer.
Quick check: growth of `CCN(CC)Cc1cccc(C(=O)OC)c1` under 40%?
0

Quick check: growth of `CCCCCCCCCCCCCCCCCCOc1ccccc1CC(=O)OCCC[N+](C)(C)C` under 40%?
0

Quick check: growth of `C[n+]1cc2c3c(ccc2c2ccc4cc5c(cc4c21)OCO5)OCO3` under 40%?
1

Quick check: growth of CC(CN1CCCCC1)C(=O)c1ccccc1 (stereo unspecified) under 40%?
0

Quick check: growth of `NS(=O)(=O)c1cnccc1Sc1ccncc1S(N)(=O)=O` under 40%?
0

Next:
Quick check: growth of `Nc1ccc2c(c1)c(N)nn2C(=O)Nc1ccc(Cc2ccccc2)cc1` under 40%?
0

Quick check: growth of `Nc1cc2c3c(cccc3c1)C(=O)N(CCN1CCCC1)C2=O` under 40%?
1
